protocol: NCI Yeast Anticancer Drug Screen. Data for the bub3 strain (AID 167)
conditionsUsed: S. cerevisiae bub3 mutant strain, at 50.0 µM (retest, dose inferred, filed as 5.0)
Protocol: Growth inhibition of yeast strains with defined genetic alterations is measured as a screen for potential anti-cancer activity. Selected strains with alterations in DNA damage repair or cell cycle control were exposed to compounds and growth inhibition was measured relative to vehicle treated controls. The strain used in this assay is bub3
Compounds without any hit were thinned out: in the full panel of roughly 79,000, 15% have a hit. Calls of active or inactive are those of the source. Rule as the data show it: active = growth inhibition above about 70%; inactive = the rest.
Possible outcomes: true = active, false = inactive

[[record]]
compound = "CCOC(=O)C1(C)CCCC1N (stereo not given)"
assignedlabel = "true"

[[record]]
compound = "OC(Cc1cc(CC(O)(C(F)(F)F)C(F)(F)F)nc(CC(O)(C(F)(F)F)C(F)(F)F)c1)(C(F)(F)F)C(F)(F)F"
assignedlabel = "true"

[[record]]
compound = "CCCCCCCCCC(=O)CCCCCCCCC"
assignedlabel = "false"

[[record]]
compound = "CCOc1ccc(C(CN2CCOCC2)C(C)=O)cc1OC (stereo not given)"
assignedlabel = "true"

[[record]]
compound = "O=C(Nc1cccc(C(F)(F)F)c1)Oc1ccc(Cl)c2cccnc12"
assignedlabel = "true"


* * *

protocol: NCI Yeast Anticancer Drug Screen. Data for the bub3 strain (AID 167)
conditionsUsed: S. cerevisiae bub3 mutant strain, at 5.0 µM (retest, dose inferred, filed as 0.5), active compounds read high
Compounds without any hit were thinned out: in the full panel of roughly 79,000, 15% have a hit. *1 amine or outer side, *2 acyl side, *3 side chain or, on linkers, in order; H or OH if unused. Where a SMILES comes first, the peptide text is derived from it. [ ]: non-standard residue; d: D form. The star is where a group is joined. X5 = CCC(=O)CC1CC(C)CC(C(=O)[*:2])N1[*:1]; X4 = CCCCCCCCC(C)C(=O)*; Aib = CC(C)(N)C(=O)O; X6 = CC(CN(C)CCO)N*
# binarize growth inhibition: threshold 20% inclusive, high side 1, low side 0

[[record]]
compound = "Cc1ccc(Nc2n[nH]c(=S)s2)cc1F"
assignedlabel = 1

[[record]]
compound = "Cc1cc(C(=O)c2ccccc2Cl)ccc1O"
assignedlabel = 0

[[record]]
compound = "CCOc1ccc(C(CN2CCOCC2)C(C)=O)cc1OC (centres undefined)"
assignedlabel = 0

[[record]]
compound = "N=C1C=C(N)C(=O)c2ccccc21"
assignedlabel = 1

[[record]]
compound = "Cc1nc([N+](=O)[O-])c(Sc2nncc(-c3ccccc3)n2)n1C"
assignedlabel = 0

[[record]]
compound = "CCCOC(=O)c1nc(N(CC2CCCCC2)C(=O)NC)sc1/N=C/c1ccccc1"
assignedlabel = 1

[[record]]
compound = "CC1(C)OCC(COC(c2ccccc2)(c2ccccc2)c2ccccc2)O1 (centres undefined)"
assignedlabel = 0

[[record]]
compound = "Cc1ccc(NC(=S)C#N)cc1Cl"
assignedlabel = 1

[[record]]
compound = "CCCCCCN(CCCCCC)CCCCCCCCCCCO"
assignedlabel = 0

[[record]]
compound = "Nc1nc2ncc(CNc3ccc(C(=O)NC(CCC(=O)NC(CCC(=O)NC(CCC(=O)NC(CCC(=O)NC(CCC(=O)O)C(=O)O)C(=O)O)C(=O)O)C(=O)O)C(=O)O)cc3)nc2c(=O)[nH]1 (centres undefined)"
assignedlabel = 0

[[record]]
compound = "Cc1ccc(/C=N/Nc2cc(C)c3cccc(C)c3n2)s1"
assignedlabel = 0

[[record]]
compound = "CCOC(=O)C(NC(C)=O)C(=O)c1ccccc1 (centres undefined)"
assignedlabel = 0

[[record]]
compound = "CN(C)CC(C)(CN(C)C)C(=O)/C=C/c1c(Cl)cccc1Cl"
assignedlabel = 0

[[record]]
compound = "CC1(C)CCC[C@]2(C)[C@@H](C=O)C(C=O)=CC[C@@H]12"
assignedlabel = 0

[[record]]
compound = "c1ccc(-c2cc3cc4ccccc4cn3c2)cc1"
assignedlabel = 1

[[record]]
compound = "O=C(Cc1ccccc1)C(F)(F)F"
assignedlabel = 0

[[record]]
compound = "CCCCCCCCCCCCSC(=N)N"
assignedlabel = 1

[[record]]
compound = "CCOC(=O)C1C(C(C)C)C2(C#N)C(=N)OC1(C)C2(C#N)C#N (centres undefined)"
assignedlabel = 0

[[record]]
compound = "O=C1/C(=C/c2ccccn2)CCc2ccccc21"
assignedlabel = 0

[[record]]
compound = "O=C1C=CC(=O)N1c1ccccc1"
assignedlabel = 1

[[record]]
compound = "OCCOSCCO"
assignedlabel = 0

[[record]]
compound = "CCSc1nc2ccccc2o1"
assignedlabel = 0

[[record]]
compound = "C/C(=N\\NC(=S)N1CC2CCC(CC2)C1)c1ccccn1"
assignedlabel = 1

[[record]]
compound = "O=C1C=CC(=O)C2=C1CC=CC2"
assignedlabel = 1

[[record]]
compound = "CCCCCCCCC(C)C(=O)N1CCCC1C(=O)N1C(CC(=O)CC)CC(C)CC1C(=O)NC(C)C(=O)NC(C)(C)C(=O)NC(C)(C)C(=O)NC(C(=O)NC(C)C(=O)NC(C)(C)C(=O)NC(C)(C)C(=O)NC(C)CN(C)CCO)C(C)CC (centres undefined) (X4-P[X5]A[Aib][Aib]IA[Aib][Aib]-X6; configuration not given here)"
assignedlabel = 1

[[record]]
compound = "CC(=O)Oc1c(Br)cc(Br)cc1C(OC(C)=O)OC(C)=O"
assignedlabel = 0

[[record]]
compound = "CC1C(c2ccccc2)OCCN1C(=S)Nc1ccc(S(=O)(=O)N2CCCCC2)cc1 (centres undefined)"
assignedlabel = 1

[[record]]
compound = "CCc1cccc(CC)c1N1C(=O)C=CC1=O"
assignedlabel = 1

[[record]]
compound = "COc1cc(N(CCC#N)CCC#N)ccc1/C(N=Nc1ccc([N+](=O)[O-])cc1)=N/NC(=O)c1cc(Br)ccc1O"
assignedlabel = 0

[[record]]
compound = "O=C(c1ccccc1)N(CCCl)C(=O)N(CCCl)C(=O)c1ccccc1"
assignedlabel = 1

[[record]]
compound = "C=CCO/N=C/c1cc(NC(=S)c2ccoc2C)ccc1Cl"
assignedlabel = 0

[[record]]
compound = "CCOC(=O)c1[nH]c(C#N)c(C(=O)OCC)c1C"
assignedlabel = 0

[[record]]
compound = "O=C1C=CC(=O)c2c(O)c(CO)c(CO)c(O)c21"
assignedlabel = 1

[[record]]
compound = "COc1cccc(N=N/C(=N\\NC(=O)c2cc(Br)ccc2O)c2ccc(N(CCC#N)CCC#N)cc2OC)c1"
assignedlabel = 0

[[record]]
compound = "O=C1CCC2(C=C(Br)C(=O)C(Br)=C2)O1"
assignedlabel = 1

[[record]]
compound = "O=[N+]([O-])c1ccc(Oc2ccccc2Cl)c([N+](=O)[O-])c1"
assignedlabel = 0

[[record]]
compound = "CCOc1ccc(NC(=O)/C(=N\\N)C(C(=O)OC)c2nc3ccc(Cl)cc3[nH]c2=O)cc1 (centres undefined)"
assignedlabel = 0

[[record]]
compound = "COc1cc([C@@H]2c3cc4c(cc3[C@H](OC3OC5COC(c6ccccc6)OC5C(O)C3O)[C@H]3COC(=O)[C@H]23)OCO4)cc(OC)c1OC (some centres undefined)"
assignedlabel = 0

[[record]]
compound = "CCCCCCCCCCCC[S+](C)CC(=O)[O-] (centres undefined)"
assignedlabel = 0

[[record]]
compound = "Cn1c(COC(=O)NC2CCCCC2)c(COC(=O)NC2CCCCC2)c2ccc3cc(Cl)c(Cl)cc3c21"
assignedlabel = 0

[[record]]
compound = "Cc1cc(I)nc2ccccc12"
assignedlabel = 0

[[record]]
compound = "Nc1ccc(C(=O)/C=C/c2ccccc2)cc1"
assignedlabel = 0

[[record]]
compound = "OC(c1cc(-c2ccc(Cl)cc2)nc2c(Cl)cccc12)C1CCCCN1 (centres undefined)"
assignedlabel = 1

[[record]]
compound = "COc1ccc(/C=C2/C(=O)ON=C2C)cc1"
assignedlabel = 0

